Hello, the source for this data is patent US20200157194A1, in case you need it.

Target: T1, recombinant human GREM1 (hGREM1-His; C-terminal 10His tagged, R&D, #5190-GR) (human, UniProt O60565 25-184)
T1 construct: range 25-184; also called recombinant human GREM1 with a C-terminal decahistidine tag
T1 sequence: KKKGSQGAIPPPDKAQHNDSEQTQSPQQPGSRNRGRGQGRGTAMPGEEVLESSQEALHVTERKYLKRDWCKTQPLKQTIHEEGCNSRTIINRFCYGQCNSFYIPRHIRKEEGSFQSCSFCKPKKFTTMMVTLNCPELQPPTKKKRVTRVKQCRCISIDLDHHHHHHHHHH
Assay: BLI Octet, mAb captured, 100 nM GREM1 + 5 uM heparin;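 note: octet Red96 biolayer interferometry at 25 °C, antibodies captured on anti-human IgG Fc biosensors, pH 7.4 HEPES buffer with 0.1 mg/mL BSA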
Parameter: Binding Signal with 30 sec Association (nm)
Respond numerically; units are nm and should not be typed.

Binder: H4H2926N (antibody, human IgG4, V domains shown, H4H prefix = human IgG4 Fc) VH: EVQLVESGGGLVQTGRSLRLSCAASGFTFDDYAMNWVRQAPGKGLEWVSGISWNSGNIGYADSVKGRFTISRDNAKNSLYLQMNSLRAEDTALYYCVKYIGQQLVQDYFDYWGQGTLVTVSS VL: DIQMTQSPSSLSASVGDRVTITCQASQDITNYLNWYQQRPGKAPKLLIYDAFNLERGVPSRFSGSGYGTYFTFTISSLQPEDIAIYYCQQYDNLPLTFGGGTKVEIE
Unit Symbol: nm
Binding Signal with 30 sec Association: 0.07

Moving on to the next binder.
Entry H4H2895N (antibody, human IgG4, V domains shown, H4H prefix = human IgG4 Fc) VH: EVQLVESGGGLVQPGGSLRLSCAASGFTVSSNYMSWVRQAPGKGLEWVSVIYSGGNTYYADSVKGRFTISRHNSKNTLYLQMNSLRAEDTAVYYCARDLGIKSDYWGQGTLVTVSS VL: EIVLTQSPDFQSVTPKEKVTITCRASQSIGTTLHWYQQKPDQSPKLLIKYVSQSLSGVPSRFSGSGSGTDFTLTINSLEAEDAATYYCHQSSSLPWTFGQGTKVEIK : reported Binding Signal with 30 sec Association = ?
0.22
